Reference source for all entries: ChEMBL document CHEMBL5120833

testProtocol: Cytotoxicity against human HepG2 cells assessed as inhibition of cell viability incubated for 48 hrs by MTT assay
Type: toxicity, cell-based
Measured IC50 at 48 h of individual entries

{"structure": "O=C(COc1cc(F)ccc1[N+](=O)[O-])NCCN1CCN(Cc2ccccc2)CC1", "IC50 at 48 h": "> 100 µM"}
{"structure": "O=C(COc1ccc(Cl)cc1)NCC1CCN(Cc2ccccc2)CC1", "IC50 at 48 h": "> 100 µM"}
{"structure": "O=C(COc1ccc(Cl)cc1[N+](=O)[O-])NCCN1CCN(Cc2ccccc2)CC1", "IC50 at 48 h": "> 100 µM"}
{"structure": "O=C(COc1ccc(CCc2ccccc2)cc1)NCCN1CCN(Cc2ccccc2)CC1", "IC50 at 48 h": "15.8 µM"}
